# test method notes: self-splicing fitness, log relative to wild type (ln ratio); higher = more splicing; Tetrahymena group I intron in knt gene, E. coli kanamycin selection, DiMSum; sequences stand for … in CUCUCU…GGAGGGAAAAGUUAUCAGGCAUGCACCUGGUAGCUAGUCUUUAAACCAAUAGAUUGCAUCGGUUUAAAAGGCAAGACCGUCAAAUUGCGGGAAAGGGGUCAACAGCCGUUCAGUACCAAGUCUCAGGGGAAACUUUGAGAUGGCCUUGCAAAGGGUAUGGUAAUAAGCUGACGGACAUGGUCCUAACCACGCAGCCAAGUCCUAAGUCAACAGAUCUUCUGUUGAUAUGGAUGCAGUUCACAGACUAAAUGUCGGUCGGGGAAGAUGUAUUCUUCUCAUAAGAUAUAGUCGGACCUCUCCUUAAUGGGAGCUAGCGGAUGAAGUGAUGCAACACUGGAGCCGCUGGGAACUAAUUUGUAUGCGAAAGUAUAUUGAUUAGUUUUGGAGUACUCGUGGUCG;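 further: selection with 25 µg/mL kanamycin versus none on LB agar overnight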
# assay setup: 30 °C
parameter: self-splicing fitness (ln)

- CUCAAGCAAUAUUACGAUUG: -3.85
- CUGCAGCAAUAUUACGUUAA: -3.5
- GCUCAGCAAUAUUACGAGGG: -2.38
- GCUUAGCAAUAUUACGCGUA: -1.39
- CUAAAGCAAUAUUACGCGCA: -2.92
- AUUUAGCAAUAUUACGUUGG: -3.51
- UUGCAGCAAUAUUACGCUGA: -3.27
- AAAUAGCAAUAUUACGGAUC: -1.18
- UCUGAGCAAUAUUACGGAGG: -3.34
- UCUUAGCAAUAUUACGCACA: -1.04
- ACGCAGCAAUAUUACGAACU: -0.619
- AUCGAGCAAUAUUACGUUAU: -3.5
- CAUCAGCAAUAUUACGAGCA: -2.05
- AAUUAGCAAUAUUACGAGCU: -1.02
- CAUGAGCAAUAUUACGAUAG: -1.55
- ACCCAGCAAUAUUACGCACG: -1.86

====

# test method notes: self-splicing fitness, log relative to wild type (ln ratio); higher = more splicing; Tetrahymena group I intron in knt gene, E. coli kanamycin selection, DiMSum; sequences stand for … in CUCUCU…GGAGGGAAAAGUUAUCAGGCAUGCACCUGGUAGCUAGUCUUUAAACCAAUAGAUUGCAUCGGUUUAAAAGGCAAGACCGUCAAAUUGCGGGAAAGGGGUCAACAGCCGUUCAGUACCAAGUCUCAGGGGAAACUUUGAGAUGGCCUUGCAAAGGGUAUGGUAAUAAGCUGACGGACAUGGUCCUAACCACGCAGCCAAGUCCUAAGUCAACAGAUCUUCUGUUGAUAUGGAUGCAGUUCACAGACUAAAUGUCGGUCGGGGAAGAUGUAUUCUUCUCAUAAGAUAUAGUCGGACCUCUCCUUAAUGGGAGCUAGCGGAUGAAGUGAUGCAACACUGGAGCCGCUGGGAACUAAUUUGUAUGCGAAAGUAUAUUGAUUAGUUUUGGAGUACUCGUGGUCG
# assay setup: 37 °C
Kindly return condition met if reported self-splicing fitness (ln) is no lower than -2; return condition not met if it is lower.

• UGUGAGCAAUAUUACGUUAC = condition not met
• AUGAAGCAAUAUUACGGUUG = condition met
• CGUGAGCAAUAUUACGUCCU = condition met
• UUGGAGCAAUAUUACGAGAU = condition not met
• ACGUAGCAAUAUUACGAGUG = condition met
• UUUGAGCAAUAUUACGUAUG = condition not met
• CGCUAGCAAUAUUACGGCAA = condition met
• GUGUAGCAAUAUUACGUACC = condition met
• AUGCAGCAAUAUUACGAGAU = condition met
• UCCUAGCAAUAUUACGCAAA = condition met
• AUCCAGCAAUAUUACGUACC = condition met
• GGCUAGCAAUAUUACGGAAC = condition met
• CUGAAGCAAUAUUACGGUAC = condition not met
• UAAAAGCAAUAUUACGUUAU = condition not met
• UUGAAGCAAUAUUACGGAAC = condition not met
• CAGAAGCAAUAUUACGUCCC = condition met

====

# test method notes: self-splicing fitness, log relative to wild type (ln ratio); higher = more splicing; Tetrahymena group I intron in knt gene, E. coli kanamycin selection, DiMSum; sequences stand for … in CUCUCU…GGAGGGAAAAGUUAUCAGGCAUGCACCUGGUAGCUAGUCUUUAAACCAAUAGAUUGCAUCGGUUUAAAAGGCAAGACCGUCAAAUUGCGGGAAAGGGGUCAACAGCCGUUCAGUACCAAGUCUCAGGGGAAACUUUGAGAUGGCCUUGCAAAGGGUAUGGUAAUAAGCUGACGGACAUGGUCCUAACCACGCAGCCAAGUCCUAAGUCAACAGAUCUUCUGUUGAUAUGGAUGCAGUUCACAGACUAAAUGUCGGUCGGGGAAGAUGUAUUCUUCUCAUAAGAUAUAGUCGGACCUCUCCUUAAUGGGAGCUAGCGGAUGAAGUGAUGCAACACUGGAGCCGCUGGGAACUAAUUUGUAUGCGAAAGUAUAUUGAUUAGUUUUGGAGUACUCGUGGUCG
# assay setup: 30 °C
Entries are grouped by self-splicing fitness (ln) into these classes: 0 = under -3, 1 = from -3 up to -2, 2 = -2 and over

- UGGCAGCAAUAUUACGGCUC: 2
- UCUAAGCAAUAUUACGGGUU: 0
- GGAAAGCAAUAUUACGCUCA: 2
- CCGCAGCAAUAUUACGGUAA: 0
- UUUAAGCAAUAUUACGCAGG: 2
- UAUAAGCAAUAUUACGCCUU: 2
- GGGGAGCAAUAUUACGAAAU: 0
- UAGCAGCAAUAUUACGUAGG: 2
- ACAGAGCAAUAUUACGUGGC: 0
- CAGCAGCAAUAUUACGCGGC: 0
- GUGUAGCAAUAUUACGGUCC: 2
- UGUCAGCAAUAUUACGCGCC: 2
- CAAGAGCAAUAUUACGCUUU: 0
- UACAAGCAAUAUUACGUACU: 1
- AGCAAGCAAUAUUACGCUAC: 0
- GCAAAGCAAUAUUACGGAGU: 0
- CUGUAGCAAUAUUACGGAGG: 0
- UAAAAGCAAUAUUACGAAGC: 0
- CAGAAGCAAUAUUACGUUUA: 0
- CUCGAGCAAUAUUACGUAGU: 0
- AUGCAGCAAUAUUACGUACG: 1
- GCUCAGCAAUAUUACGACCU: 2
- UGCCAGCAAUAUUACGGUGA: 2
- ACAGAGCAAUAUUACGCGGA: 0
- ACCCAGCAAUAUUACGGCUU: 2
- GCUCAGCAAUAUUACGAGAC: 0
- UGGUAGCAAUAUUACGUUUU: 0
- AUCAAGCAAUAUUACGCGUC: 0
- GUCCAGCAAUAUUACGUGUG: 2
- CCCUAGCAAUAUUACGAGAU: 0
- GAGAAGCAAUAUUACGAGAG: 1
- AAGGAGCAAUAUUACGAAGU: 0
- UUCAAGCAAUAUUACGGGGC: 0
- GUGCAGCAAUAUUACGCAGA: 1
- CAAGAGCAAUAUUACGAUGA: 0
- UCGCAGCAAUAUUACGUGGG: 0
- CAAUAGCAAUAUUACGAUAG: 2
- UUAUAGCAAUAUUACGCUGA: 1
- UUAAAGCAAUAUUACGGAGC: 0
- GUUAAGCAAUAUUACGGUAC: 2
- GGACAGCAAUAUUACGGCGG: 1
- CUCAAGCAAUAUUACGCUUC: 1
- UUAAAGCAAUAUUACGUGCG: 2
- AGUGAGCAAUAUUACGUGUA: 0
- GUGAAGCAAUAUUACGUUAC: 1
- AAAUAGCAAUAUUACGGGUG: 2
- CUCAAGCAAUAUUACGCCCU: 0
- UUUUAGCAAUAUUACGACUC: 1
- AGUCAGCAAUAUUACGAAAG: 0
- AAGUAGCAAUAUUACGUCCU: 2
- AACCAGCAAUAUUACGAGUU: 0
- UUUCAGCAAUAUUACGUUCA: 2
- AGUCAGCAAUAUUACGUGUA: 0
- UAAAAGCAAUAUUACGUAUA: 2
- UUCGAGCAAUAUUACGGCUU: 0
- GUCCAGCAAUAUUACGCUUU: 2
- ACCCAGCAAUAUUACGUCUC: 2
- UGACAGCAAUAUUACGACGA: 2
- CGCUAGCAAUAUUACGAAGC: 2
- UUGUAGCAAUAUUACGUGUA: 2
- AGACAGCAAUAUUACGGGUA: 1
- ACCGAGCAAUAUUACGGCUG: 2
- GGUUAGCAAUAUUACGUCUU: 2
